biological target: FAAH (Homo sapiens, UniProt O00519); experiment: Assay Method 1: human FAAH assay (3H-anandamide hydrolysis in cell homogenate); format: biochemical; design: expressed in transfected cells; host or cells: SK-N-MC cells stably transfected with human FAAH cDNA (G418 selection); alternatively T84 cell pellets; conditions: read-out: Assay 1 IC50
Sequence (O00519 whole entry): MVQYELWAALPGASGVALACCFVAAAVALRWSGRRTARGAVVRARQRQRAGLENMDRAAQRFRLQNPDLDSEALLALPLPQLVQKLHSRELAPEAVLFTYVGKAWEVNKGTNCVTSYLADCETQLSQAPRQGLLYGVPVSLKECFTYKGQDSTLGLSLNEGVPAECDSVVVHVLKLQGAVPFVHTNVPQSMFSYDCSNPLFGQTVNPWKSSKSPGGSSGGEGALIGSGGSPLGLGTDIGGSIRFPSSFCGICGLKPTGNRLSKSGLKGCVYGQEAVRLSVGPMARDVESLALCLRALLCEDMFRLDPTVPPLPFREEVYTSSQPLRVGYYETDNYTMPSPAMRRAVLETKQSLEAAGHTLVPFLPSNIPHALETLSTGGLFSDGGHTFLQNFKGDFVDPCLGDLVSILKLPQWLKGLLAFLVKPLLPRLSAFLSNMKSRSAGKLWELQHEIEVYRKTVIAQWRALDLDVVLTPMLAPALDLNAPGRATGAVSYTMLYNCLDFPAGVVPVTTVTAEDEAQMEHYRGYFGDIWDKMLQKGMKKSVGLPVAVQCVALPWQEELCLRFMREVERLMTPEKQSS
pIC50: −log10 of the molar value. Where a name gives a salt, the structure may show the parent alone.
QUANTITY_KIND: pIC50

Example results:
O=C(Nc1cnc2[nH]ccc2c1)N1CCC2(CCCN2Cc2cccc(Oc3ccc(Cl)cc3)c2)C1 (stereo not shown) [Example 9]; 6.00
O=C(Nc1cnc2[nH]ccc2c1)N1CCC2(CCCN2Cc2cccc(Oc3ccc(Cl)cc3)c2)CC1 [Example 95]; 6.11

[a] O=C(Nc1cccnc1)N1CC2(CCN(Cc3cccc(Oc4cccc(Br)c4)c3)CC2)C1 [Example 122]
[b] O=C(Nc1cccnc1)N1CC2(CCN(Cc3cccc(Oc4cccc(OC(F)(F)F)c4)c3)CC2)C1 [Example 115]
[c] O=C(Nc1cnccc1Cl)N1CCCC2(CN(Cc3cccc(Oc4ccc(Cl)cc4)c3)C2)C1 [Example 30]
[d] COc1ccc(NC(=O)N2CC3(CCN(Cc4cccc(Oc5ccc(Cl)cc5)c4)CC3)C2)nn1 [Example 70, trifluoroacetic acid salt]
With regard to pIC50, arrange the entries in ascending order, please. Please write the labels in the order that was asked for.
d, c, b, a
(d: 5.52, c: 5.80, b: 6.12, a: 7.30)
